Where these numbers come from: ChEMBL document CHEMBL3112515

- Protocol Summary: Cytotoxicity against human H460 cells after 72 hrs by MTT assay
- Stated Conditions: NCI-H460, 72 h
Endpoint: IC50 (nM)
# unit: nM | format: bare number

[in] Quick check: IC50 of `COc1cc2c(Oc3ccc(N/C=C4\C(=O)NC(=O)N(c5ccc(F)c(Cl)c5)C4=O)cc3F)ccnc2cc1OCCCN1CCCC1` ?
[out] 54

Others:
[in] Quick check: IC50 of `COc1cc2c(Oc3ccc(N/C=C4\C(=O)NC(=O)N(c5ccccc5C(F)(F)F)C4=O)cc3F)ccnc2cc1OCCCN1CCC(C)CC1` ?
[out] 380

[in] And what about the compound `COc1cc2c(Oc3ccc(N/C=C4\C(=O)NC(=O)N(c5ccccc5)C4=O)cc3F)ccnc2cc1OCCCN1CCN(C)CC1` ?
[out] 290

[in] And what about the compound `COc1cc2c(Oc3ccc(N/C=C4\C(=O)NC(=O)N(c5ccc(C)cc5)C4=O)cc3F)ccnc2cc1OCCCN1CCCC1` ?
[out] 51

[in] And what about the compound `COc1cc2c(Oc3ccc(N/C=C4\C(=O)NC(=O)N(c5ccc(F)cc5F)C4=O)cc3F)ccnc2cc1OCCCN1CCCC1` ?
[out] 240

[in] And what about the compound `COc1cc2c(Oc3ccc(N/C=C4\C(=O)NC(=O)N(c5c(C)cccc5C)C4=O)cc3F)ccnc2cc1OCCCN1CCC(C)CC1` ?
[out] 150

[in] And what about the compound `COc1cc2c(Oc3ccc(N/C=C4\C(=O)NC(=O)N(c5ccc(F)c(Cl)c5)C4=O)cc3F)ccnc2cc1OCCCN1CCCCC1` ?
[out] 80

====

- Protocol Summary: Cytotoxicity against human MKN45 cells after 72 hrs by MTT assay
- Stated Conditions: MKN-45, 72 h
param class (str): category from IC50; see ranges low value (below 100 nM), medium value (100 nM to below 700 nM), high value (700 nM or more)

[in] Determine which band this molecule sits in: `COc1cc2c(Oc3ccc(N/C=C4\C(=O)NC(=O)N(c5ccc(F)c(Cl)c5)C4=O)cc3F)ccnc2cc1OCCCN1CCC(C)CC1`
[out] low value

[in] And what about the molecule `COc1cc2c(Oc3ccc(N/C=C4\C(=O)NC(=O)N(c5ccccc5C(F)(F)F)C4=O)cc3F)ccnc2cc1OCCCN1CCC(C)CC1` ?
[out] medium value

[in] And what about the molecule `COc1cc2c(Oc3ccc(N/C=C4\C(=O)NC(=O)N(c5ccc(F)cc5)C4=O)cc3F)ccnc2cc1OCCCN1CCOCC1` ?
[out] high value

[in] And what about the molecule `COc1cc2c(Oc3ccc(N/C=C4\C(=O)NC(=O)N(c5ccc(C)cc5)C4=O)cc3F)ccnc2cc1OCCCN1CCOCC1` ?
[out] medium value

[in] And what about the molecule `COc1cc2c(Oc3ccc(N/C=C4\C(=O)NC(=O)N(c5ccc(F)c(Cl)c5)C4=O)cc3F)ccnc2cc1OCCCN1CCCCC1` ?
[out] low value

[in] And what about the molecule `COc1cc2c(Oc3ccc(N/C=C4\C(=O)NC(=O)N(c5ccc(F)c(Cl)c5)C4=O)cc3F)ccnc2cc1OCCCN1CCOCC1` ?
[out] medium value

[in] And what about the molecule `COc1cc2c(Oc3ccc(N/C=C4\C(=O)NC(=O)N(c5c(C)cccc5C)C4=O)cc3F)ccnc2cc1OCCCN1CCCC1` ?
[out] high value

[in] And what about the molecule `COc1cc2c(Oc3ccc(N/C=C4\C(=O)NC(=O)N(c5ccccc5)C4=O)cc3F)ccnc2cc1OCCCN1CCOCC1` ?
[out] medium value

Others:
[in] Determine which band this molecule sits in: `COc1cc2c(Oc3ccc(N/C=C4\C(=O)NC(=O)N(c5ccc(F)cc5F)C4=O)cc3F)ccnc2cc1OCCCN1CCOCC1`
[out] high value

[in] And what about the molecule `COc1cc2c(Oc3ccc(N/C=C4\C(=O)NC(=O)N(c5ccc(C)cc5)C4=O)cc3F)ccnc2cc1OCCCN1CCCC1` ?
[out] low value

[in] And what about the molecule `COc1cc2c(Oc3ccc(N/C=C4\C(=O)NC(=O)N(c5ccc(F)cc5)C4=O)cc3F)ccnc2cc1OCCCN1CCCC1` ?
[out] high value

====

Items are presented alongside their recorded pIC50.
- System: Hepatocyte growth factor receptor (Homo sapiens, UniProt P08581)
- Sequence (P08581 whole entry): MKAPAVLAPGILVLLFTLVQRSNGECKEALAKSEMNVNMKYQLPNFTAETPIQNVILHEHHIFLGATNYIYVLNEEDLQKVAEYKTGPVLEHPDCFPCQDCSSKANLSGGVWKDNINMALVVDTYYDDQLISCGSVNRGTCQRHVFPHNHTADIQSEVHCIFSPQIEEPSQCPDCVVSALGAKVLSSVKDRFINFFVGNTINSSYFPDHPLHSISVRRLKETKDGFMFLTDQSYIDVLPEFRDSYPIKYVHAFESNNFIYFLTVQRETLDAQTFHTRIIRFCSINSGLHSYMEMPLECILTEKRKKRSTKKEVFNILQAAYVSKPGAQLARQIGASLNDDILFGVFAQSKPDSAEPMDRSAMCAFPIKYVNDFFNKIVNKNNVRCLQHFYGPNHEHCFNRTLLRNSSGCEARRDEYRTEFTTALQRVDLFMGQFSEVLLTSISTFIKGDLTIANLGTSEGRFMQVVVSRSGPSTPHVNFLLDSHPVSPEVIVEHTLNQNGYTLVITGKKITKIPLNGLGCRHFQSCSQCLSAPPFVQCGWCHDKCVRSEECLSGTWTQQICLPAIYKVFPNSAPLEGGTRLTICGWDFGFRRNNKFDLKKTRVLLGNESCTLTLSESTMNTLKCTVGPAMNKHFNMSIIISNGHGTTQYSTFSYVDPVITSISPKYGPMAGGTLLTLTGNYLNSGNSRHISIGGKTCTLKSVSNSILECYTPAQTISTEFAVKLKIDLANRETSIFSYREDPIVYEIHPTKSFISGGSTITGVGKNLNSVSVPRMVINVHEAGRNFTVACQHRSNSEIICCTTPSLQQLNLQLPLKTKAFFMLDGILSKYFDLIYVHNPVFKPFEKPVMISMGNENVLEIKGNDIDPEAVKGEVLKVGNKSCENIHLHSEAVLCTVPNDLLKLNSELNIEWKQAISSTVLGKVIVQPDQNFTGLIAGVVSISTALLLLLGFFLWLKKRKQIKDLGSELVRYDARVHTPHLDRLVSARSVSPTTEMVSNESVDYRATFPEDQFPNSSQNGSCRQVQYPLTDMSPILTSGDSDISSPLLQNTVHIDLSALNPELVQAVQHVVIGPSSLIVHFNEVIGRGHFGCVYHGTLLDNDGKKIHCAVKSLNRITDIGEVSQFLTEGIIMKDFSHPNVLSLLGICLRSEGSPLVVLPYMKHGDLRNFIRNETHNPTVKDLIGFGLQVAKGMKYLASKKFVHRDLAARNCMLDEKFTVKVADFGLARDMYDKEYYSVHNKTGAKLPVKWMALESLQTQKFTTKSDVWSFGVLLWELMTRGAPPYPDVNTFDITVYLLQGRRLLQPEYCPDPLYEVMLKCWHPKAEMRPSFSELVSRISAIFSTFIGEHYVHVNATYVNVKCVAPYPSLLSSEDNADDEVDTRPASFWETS
pIC50 field: float, defined as -log10 of concentration (mol/L).

[in] Quick check: pIC50 of `COc1cc2c(Oc3ccc(N/C=C4\C(=O)NC(=O)N(c5ccc(F)cc5)C4=O)cc3F)ccnc2cc1OCCCN1CCCCC1` ?
[out] 8.44

[in] And what about the compound `COc1cc2c(Oc3ccc(N/C=C4\C(=O)NC(=O)N(c5ccc(F)cc5F)C4=O)cc3F)ccnc2cc1OCCCN1CCCCC1` ?
[out] 8.03

[in] And what about the compound `COc1cc(N2C(=O)NC(=O)/C(=C\Nc3ccc(Oc4ccnc5cc(OCCCN6CCC(C)CC6)c(OC)cc45)c(F)c3)C2=O)c(OC)cc1Cl` ?
[out] 7.72

[in] And what about the compound `COc1cc2c(Oc3ccc(N/C=C4\C(=O)NC(=O)N(c5ccc(F)cc5F)C4=O)cc3F)ccnc2cc1OCCCN1CCN(C)CC1` ?
[out] 8.08

[in] And what about the compound `COc1cc2c(Oc3ccc(N/C=C4\C(=O)NC(=O)N(c5ccccc5)C4=O)cc3F)ccnc2cc1OCCCN1CCC(C)CC1` ?
[out] 8.42

[in] And what about the compound `COc1cc2c(Oc3ccc(N/C=C4\C(=O)NC(=O)N(c5ccc(F)cc5)C4=O)cc3F)ccnc2cc1OCCCN1CCN(C)CC1` ?
[out] 8.50

In the following, a different compound is considered.
[in] Quick check: pIC50 of `COc1cc2c(Oc3ccc(N/C=C4\C(=O)NC(=O)N(c5ccc(F)cc5)C4=O)cc3F)ccnc2cc1OCCCN1CCOCC1` ?
[out] 8.45

====

- Protocol Summary: Cytotoxicity against human H460 cells after 72 hrs by MTT assay
- Stated Conditions: NCI-H460, 72 h
Endpoint: IC50
Quick note: number first, unit second.

Recorded results for 6 compounds are shown here.
[in] Quick check: IC50 of `COc1cc2c(Oc3ccc(N/C=C4\C(=O)NC(=O)N(c5ccccc5)C4=O)cc3F)ccnc2cc1OCCCN1CCCC1` ?
[out] 290 nM

[in] And what about the compound `COc1cc2c(Oc3ccc(N/C=C4\C(=O)NC(=O)N(c5ccccc5)C4=O)cc3F)ccnc2cc1OCCCN1CCCCC1` ?
[out] 220 nM

[in] And what about the compound `COc1cc2c(Oc3ccc(N/C=C4\C(=O)NC(=O)N(c5c(C)cccc5C)C4=O)cc3F)ccnc2cc1OCCCN1CCCC1` ?
[out] 160 nM

[in] And what about the compound `COc1cc2c(Oc3ccc(N/C=C4\C(=O)NC(=O)N(c5ccc(F)cc5)C4=O)cc3F)ccnc2cc1OCCCN1CCCC1` ?
[out] 620 nM

[in] And what about the compound `COc1cc(N2C(=O)NC(=O)/C(=C\Nc3ccc(Oc4ccnc5cc(OCCCN6CCOCC6)c(OC)cc45)c(F)c3)C2=O)c(OC)cc1Cl` ?
[out] 540 nM

[in] And what about the compound `COc1cc2c(Oc3ccc(N/C=C4\C(=O)NC(=O)N(c5ccc(F)c(Cl)c5)C4=O)cc3F)ccnc2cc1OCCCN1CCN(C)CC1` ?
[out] 76 nM

In the following, a different compound is considered.
[in] Quick check: IC50 of `COc1cc2c(Oc3ccc(N/C=C4\C(=O)NC(=O)N(c5ccc(C)cc5)C4=O)cc3F)ccnc2cc1OCCCN1CCCCC1` ?
[out] 100 nM

====

Items are presented alongside their recorded IC50.
- Protocol Summary: Cytotoxicity against human MKN45 cells after 72 hrs by MTT assay
- Stated Conditions: MKN-45, 72 h
# unit: nM | format: bare number

Recorded results for 5 compounds are shown here.
[in] Quick check: IC50 of `COc1cc2c(Oc3ccc(N/C=C4\C(=O)NC(=O)N(c5ccc(F)cc5F)C4=O)cc3F)ccnc2cc1OCCCN1CCCC1` ?
[out] 2800

[in] And what about the compound `COc1cc(N2C(=O)NC(=O)/C(=C\Nc3ccc(Oc4ccnc5cc(OCCCN6CCC(C)CC6)c(OC)cc45)c(F)c3)C2=O)c(OC)cc1Cl` ?
[out] 460

[in] And what about the compound `COc1cc2c(Oc3ccc(N/C=C4\C(=O)NC(=O)N(c5ccccc5)C4=O)cc3F)ccnc2cc1OCCCN1CCN(C)CC1` ?
[out] 520

[in] And what about the compound `COc1cc2c(Oc3ccc(N/C=C4\C(=O)NC(=O)N(c5ccc(F)cc5F)C4=O)cc3F)ccnc2cc1OCCCN1CCN(C)CC1` ?
[out] 510

[in] And what about the compound `COc1cc2c(Oc3ccc(N/C=C4\C(=O)NC(=O)N(c5ccc(F)cc5F)C4=O)cc3F)ccnc2cc1OCCCN1CCCCC1` ?
[out] 3900

Others:
[in] Quick check: IC50 of `COc1cc2c(Oc3ccc(N/C=C4\C(=O)NC(=O)N(c5c(C)cccc5C)C4=O)cc3F)ccnc2cc1OCCCN1CCOCC1` ?
[out] 5500

[in] And what about the compound `COc1cc(N2C(=O)NC(=O)/C(=C\Nc3ccc(Oc4ccnc5cc(OCCCN6CCN(C)CC6)c(OC)cc45)c(F)c3)C2=O)c(OC)cc1Cl` ?
[out] 480
